# tgt: T1, human CD154, soluble antigen (human, UniProt P29965 116-261, limits assumed)
# T1 construct: KinExA uses 'soluble antigen'; also called CD40 ligand; CD40L
# T1 sequence (looked up): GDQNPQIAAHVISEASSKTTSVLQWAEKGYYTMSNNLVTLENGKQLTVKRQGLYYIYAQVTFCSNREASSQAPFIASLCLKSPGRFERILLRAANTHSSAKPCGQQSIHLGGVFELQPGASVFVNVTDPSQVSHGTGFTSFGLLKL
# procedureText: ELISA-based competitive binding assay; unlabeled Fab against biotin-labeled 5c8 Fab competitor
assayEndpoint: ELISA fold-improvement over wildtype (fold)
Value expressed in fold; do not type the unit.

These solved cases illustrate the format of a correct answer.
Entry 5c8 Fab Mutant #11 (heavy chain Y33F) (Fab, V domains shown) VH: QVQLVQSGAEVVKPGASVKLSCKASGYIFTSYFMYWVKQAPGQGLEWIGEINPSNGDTNFNEKFKSKATLTVDKSASTAYMELSSLRSEDTAVYYCTRSDGRNDMDSWGQGTLVTVSS VL: DIVLTQSPATLSVSPGERATISCRASQRVSSSTYSYMHWYQQKPGQPPKLLIKYASNLESGVPARFSGSGSGTDFTLTISSVEPEDFATYYCQHSWEIPPTFGGGTKLEIK has what ELISA fold-improvement over wildtype?
0.05

Entry 5c8 Fab Mutant #12 (heavy chain N59D) (Fab, V domains shown, also called Asn59Asp) VH: QVQLVQSGAEVVKPGASVKLSCKASGYIFTSYYMYWVKQAPGQGLEWIGEINPSNGDTDFNEKFKSKATLTVDKSASTAYMELSSLRSEDTAVYYCTRSDGRNDMDSWGQGTLVTVSS VL: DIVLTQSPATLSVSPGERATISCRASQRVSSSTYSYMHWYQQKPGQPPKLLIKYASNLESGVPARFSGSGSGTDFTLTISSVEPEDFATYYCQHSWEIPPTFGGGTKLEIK has what ELISA fold-improvement over wildtype?
0.13

Then this binder:
Entry 5c8 Fab Mutant #24 (heavy T30H/Y33W; light S26D/Q27E) (Fab, V domains shown) VH: QVQLVQSGAEVVKPGASVKLSCKASGYIFHSYWMYWVKQAPGQGLEWIGEINPSNGDTNFNEKFKSKATLTVDKSASTAYMELSSLRSEDTAVYYCTRSDGRNDMDSWGQGTLVTVSS VL: DIVLTQSPATLSVSPGERATISCRADERVSSSTYSYMHWYQQKPGQPPKLLIKYASNLESGVPARFSGSGSGTDFTLTISSVEPEDFATYYCQHSWEIPPTFGGGTKLEIK has what ELISA fold-improvement over wildtype?
8

Data credit: patent US20080305116A1
